- MEASURED_TARGET: T1, monomeric cynomolgus TNFR2 extracellular domain (cynomolgus monkey, UniProt A0A2K5VET2 132-366)
- T1 construct: extracellular domain; Analyte in the Octet experiments; also called cynomolgus TNFR2 ECD; Cyno TNFR2
- T1 sequence: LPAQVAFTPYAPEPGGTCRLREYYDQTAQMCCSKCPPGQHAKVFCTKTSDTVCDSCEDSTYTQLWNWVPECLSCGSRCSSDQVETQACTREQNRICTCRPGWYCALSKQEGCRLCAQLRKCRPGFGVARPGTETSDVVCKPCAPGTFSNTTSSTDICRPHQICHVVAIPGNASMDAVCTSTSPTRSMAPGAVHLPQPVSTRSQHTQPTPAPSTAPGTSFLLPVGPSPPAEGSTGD
- ASSAY_DETAILS: BLI (Octet Red 96), antibody captured on Fc biosensor, monomeric TNFR2 ECD in solution, 1:1 model
RECORDED_METRIC: pKd
In plain terms, pKd is the concentration in mol/L turned into minus its base-10 logarithm.

- BINDER: "chimeric SBT-004b (antibody, human IgG1, V domains shown, Same heavy chain as chSBT-004 (human IgG1 Fc domain); also called chSBT-004b) VH: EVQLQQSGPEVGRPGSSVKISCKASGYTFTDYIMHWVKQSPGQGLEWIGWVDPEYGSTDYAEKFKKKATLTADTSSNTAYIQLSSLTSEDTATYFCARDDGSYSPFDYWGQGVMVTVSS VL: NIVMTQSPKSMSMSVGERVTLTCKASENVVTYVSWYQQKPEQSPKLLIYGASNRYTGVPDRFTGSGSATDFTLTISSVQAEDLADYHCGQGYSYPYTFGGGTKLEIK"
  pKd: 8.10

I have this binder here, chimeric SBT-001 (antibody, V domains shown, also called chSBT-001) VH: EVQLQQSGAELVKPGASVKISCKASGYTFTDYNMDWVKQSHGKSLEWIGDINPNYESTSYNQKFKGKATLTVDKSSSTAYMEVRSLTSEDTAVFYCARDKGWYFDVWGAGTTVTVSS VL: ENVLTQSPAIMSASLGEKVTMSCRASSSVKNMYWYQQKSDASPKLWIYYTSNLAPGVPARFSGSGSGNSYSLTISSMEGEDAATYYCQQFTSSPYTFGGGTKLELK , and I need its recorded pKd.
7.23
